TEST_PROTOCOL: gradient 5% acetonitrile 3 min, to 50% in 2 min, to 85% in 15 min, held 3 min, 100 µL/min
MEASUREMENT_PARAMETERS: column: Zorbax Extend-C18 2.1 x 50 mm; eluents: water / acetonitrile, 0.1% formic acid
API: label(entry) gives Fulfilled if the entry's RP-LC retention time is strictly smaller than 800 s; on equality or larger values it gives Not fulfilled.

These recorded examples may help you get a feel for the data.
O=C(Cn1c(=O)c(CCC(=O)NC2CCCC2)nc2ccccc21)Nc1ccc(F)c(F)c1	Not fulfilled
CCCNC(=O)C1CCCN(c2nc3ncn(CC(=O)Nc4ccccc4F)c(=O)c3s2)C1 (centres undefined)	Fulfilled

Ask: Find out if reported RP-LC retention time for O=C(O)c1ccc(OCC(=O)C2CC2)cc1 is less than 800 s
Result: Fulfilled

Ask: Find out if reported RP-LC retention time for COc1ccc(NC(=O)N2CCC(CC(=O)N3CCCCC3)CC2)cc1 is less than 800 s
Result: Fulfilled

Ask: Find out if reported RP-LC retention time for O=C(CCCn1c(=O)c2cccn2c2ccc(F)cc21)NCc1cccs1 is less than 800 s
Result: Not fulfilled

---

TEST_PROTOCOL: gradient 5% acetonitrile 3 min, to 50% in 2 min, to 85% in 15 min, held 3 min, 100 µL/min
MEASUREMENT_PARAMETERS: column: Zorbax Extend-C18 2.1 x 50 mm; eluents: water / acetonitrile, 0.1% formic acid
Returns T if the recorded RP-LC retention time is greater than or equal to 800 s, and F otherwise.

These recorded examples may help you get a feel for the data.
Cc1ccc(C(=O)NCC(=O)Nc2nc3ccccc3[nH]2)c(C)c1	F
CCOC(=O)CCC(=O)Nc1nnc2n1CCS2	F
Cc1cc(-n2nnc(C(=O)O)c2C)ccc1F	F
O=C(CCCn1c(=O)c2cccn2c2ccccc21)NCc1ccccn1	F
CCc1cc(-c2csc(S(=O)(=O)Nc3ccc(C(C)C)cc3)c2)on1	T

Ask: Exam item: decide whether the reported RP-LC retention time for CCOC(=O)c1c(C)[nH]c(C)c1S(=O)(=O)N1CCC(C(=O)NCc2ccccc2)CC1 is at least 800 s.
Result: F

Ask: Exam item: decide whether the reported RP-LC retention time for CCOC(=O)c1cccc(Nc2c(-c3ccc(N(C)C)cc3)nc3cnccn23)c1 is at least 800 s.
Result: T

Ask: Exam item: decide whether the reported RP-LC retention time for COc1ccc(-c2nc3cnccn3c2Nc2ccc(C)cc2C)cc1OC is at least 800 s.
Result: T

Ask: Exam item: decide whether the reported RP-LC retention time for Cc1ccc(S(=O)(=O)N2CCC(C(=O)NC(C)C(=O)N3CCCc4ccccc43)CC2)cc1 (stereo not given) is at least 800 s.
Result: T

---

TEST_PROTOCOL: gradient 5% acetonitrile 3 min, to 50% in 2 min, to 85% in 15 min, held 3 min, 100 µL/min
MEASUREMENT_PARAMETERS: column: Zorbax Extend-C18 2.1 x 50 mm; eluents: water / acetonitrile, 0.1% formic acid
Returns label 1 if the recorded RP-LC retention time is greater than or equal to 800 s, and label 0 otherwise.

These recorded examples may help you get a feel for the data.
O=C(NC1CCCC1)C(c1ccc(Cl)cc1)N1CCN(C(=O)c2ccco2)CC1 (stereo not given)	label 1
COc1ccc(C(=O)N2CCC3(CC2)NC(=O)c2ccc(F)cc2N3C)cc1OC	label 0
COc1cccc(C(=O)N2CCC(Oc3nc4c(C)ccc(C)c4s3)CC2)c1OC	label 1
COc1ccc(OC)c(NC(=O)C2CCN(S(=O)(=O)c3ccc4c(c3)sc(=O)n4C)CC2)c1	label 1
CC(=O)N1CCN(S(=O)(=O)c2ccc3c(c2)OCCCO3)CC1	label 0
O=C(c1ccc(-c2ccnc(N3CCCCC3)n2)cc1)N1CCC2(CC1)OCCO2	label 1

Ask: Exam item: decide whether the reported RP-LC retention time for Cc1nn(-c2cc(N3CCCCC3)ncn2)c(C)c1CCC(=O)NC(C)CCc1ccco1 (stereo not given) is at least 800 s.
Result: label 1

Ask: Exam item: decide whether the reported RP-LC retention time for COc1cc(NC(=O)c2noc3c2CC(C)CC3)cc(OC)c1OC (stereo not given) is at least 800 s.
Result: label 1

Ask: Exam item: decide whether the reported RP-LC retention time for CCCn1c(CCc2ccccc2NS(=O)(=O)CCC)nc2ccccc21 is at least 800 s.
Result: label 0
